Numbers sourced from patent US20060194739.

assay_system: ORL1 (UniProt P41146)
Sequence (P41146 whole entry): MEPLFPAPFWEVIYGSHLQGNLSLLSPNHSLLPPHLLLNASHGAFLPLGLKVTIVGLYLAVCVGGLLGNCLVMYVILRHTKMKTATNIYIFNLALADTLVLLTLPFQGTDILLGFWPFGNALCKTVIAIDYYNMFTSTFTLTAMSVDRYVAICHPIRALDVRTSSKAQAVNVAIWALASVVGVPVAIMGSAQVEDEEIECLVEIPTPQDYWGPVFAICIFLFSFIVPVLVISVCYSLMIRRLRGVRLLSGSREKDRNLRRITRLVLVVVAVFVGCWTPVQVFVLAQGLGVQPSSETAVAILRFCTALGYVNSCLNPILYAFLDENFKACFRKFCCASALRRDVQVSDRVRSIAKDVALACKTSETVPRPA
experiment_summary: competition
Non-standard residues stand in square brackets, D forms with d. No end group written: not given here. Trp(5-CN) = N#Cc1ccc2[nH]cc(C[C@H](N)C(=O)O)c2c1; Ac6c = NC1(C(=O)O)CCCCC1; Ahx = NCCCCCC(=O)O
observation_type: pKi
# pKi is unitless: minus log10 of the molar concentration; print number only

Observe how each entry below is paired with its result.
Ac-RYYRW[Ahx]-NH2 (SMILES CC(=O)N[C@@H](CCCNC(=N)N)C(=O)N[C@@H](Cc1ccc(O)cc1)C(=O)N[C@@H](Cc1ccc(O)cc1)C(=O)N[C@@H](CCCNC(=N)N)C(=O)N[C@@H](Cc1c[nH]c2ccccc12)C(=O)NCCCCCC(N)=O) [VII-57-C]	7.38
[Ac6c]RYYRWR-NH2 (N-terminus assumed; SMILES N=C(N)NCCC[C@H](NC(=O)[C@H](Cc1c[nH]c2ccccc12)NC(=O)[C@H](CCCNC(=N)N)NC(=O)[C@H](Cc1ccc(O)cc1)NC(=O)[C@H](Cc1ccc(O)cc1)NC(=O)[C@H](CCCNC(=N)N)NC(=O)C1(N)CCCCC1)C(N)=O) [VII-4-B]	8.03
Ac-RYYR[Trp(5-CN)]R-NH2 (SMILES CC(=O)N[C@@H](CCCNC(=N)N)C(=O)N[C@@H](Cc1ccc(O)cc1)C(=O)N[C@@H](Cc1ccc(O)cc1)C(=O)N[C@@H](CCCNC(=N)N)C(=O)N[C@@H](Cc1c[nH]c2ccc(C#N)cc12)C(=O)N[C@@H](CCCNC(=N)N)C(N)=O) [VII-51-A]	9.52

Could you now look at the following binder, please?
Q: Consider the binder Ac-RYY[Ahx]WR-NH2 (SMILES CC(=O)N[C@@H](CCCNC(=N)N)C(=O)N[C@@H](Cc1ccc(O)cc1)C(=O)N[C@@H](Cc1ccc(O)cc1)C(=O)NCCCCCC(=O)N[C@@H](Cc1c[nH]c2ccccc12)C(=O)N[C@@H](CCCNC(=N)N)C(N)=O) [VII-55-A] and give its measured pKi.
Result: 7.41
